- EXPERIMENTAL TARGET: PARP-1 (Homo sapiens, UniProt P09874)
- Construct: purchased Enzo Life Sciences GmbH, Lörrach, Germany
- Sequence (P09874 whole entry): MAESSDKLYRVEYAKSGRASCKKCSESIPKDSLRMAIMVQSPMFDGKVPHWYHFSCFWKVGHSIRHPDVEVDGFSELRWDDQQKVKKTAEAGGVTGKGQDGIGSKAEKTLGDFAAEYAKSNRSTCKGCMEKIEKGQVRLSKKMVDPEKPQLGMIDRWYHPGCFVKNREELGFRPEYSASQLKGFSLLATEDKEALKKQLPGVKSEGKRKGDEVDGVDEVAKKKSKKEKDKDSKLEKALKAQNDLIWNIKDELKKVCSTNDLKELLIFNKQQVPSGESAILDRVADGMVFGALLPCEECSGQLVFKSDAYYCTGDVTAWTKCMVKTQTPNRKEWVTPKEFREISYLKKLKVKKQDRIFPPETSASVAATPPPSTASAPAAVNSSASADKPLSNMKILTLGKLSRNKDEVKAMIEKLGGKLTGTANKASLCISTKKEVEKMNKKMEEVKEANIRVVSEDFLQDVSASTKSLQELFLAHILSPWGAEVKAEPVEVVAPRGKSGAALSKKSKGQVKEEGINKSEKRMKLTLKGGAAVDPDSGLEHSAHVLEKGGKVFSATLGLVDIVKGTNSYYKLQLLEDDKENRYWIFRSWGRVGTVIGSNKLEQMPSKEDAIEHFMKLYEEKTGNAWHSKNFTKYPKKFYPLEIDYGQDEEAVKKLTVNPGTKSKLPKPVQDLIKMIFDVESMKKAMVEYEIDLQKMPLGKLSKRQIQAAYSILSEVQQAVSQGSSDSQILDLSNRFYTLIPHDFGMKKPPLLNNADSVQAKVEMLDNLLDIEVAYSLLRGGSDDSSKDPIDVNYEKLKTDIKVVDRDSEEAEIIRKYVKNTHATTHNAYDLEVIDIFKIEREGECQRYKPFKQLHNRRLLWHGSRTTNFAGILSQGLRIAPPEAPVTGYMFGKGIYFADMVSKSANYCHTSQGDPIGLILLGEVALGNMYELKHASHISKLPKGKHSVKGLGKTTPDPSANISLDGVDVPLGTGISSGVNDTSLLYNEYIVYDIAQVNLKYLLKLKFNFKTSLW
- EXPERIMENT NOTES: PARP-1 autoparsylation assay (HTRF)
- Assay type: biochemical
- DETAILS: His-tagged Parp-1, autoparsylation
QUANTITY MEASURED: IC50 (nM)
Number only, in nM; omit the unit.

## Input For the molecule shown here, COc1ccc(C(=O)C2CCN(C(=O)CCCc3nc4ccccc4c(=O)[nH]3)CC2)cc1 , give the reported IC50.
## Output 1400

## Input Would you kindly share the measured IC50 for Nc1ncc(C2CCN(C(=O)CCCc3nc4ccccc4c(=O)[nH]3)CC2)cc1-c1ncccn1 ?
## Output 670

## Input Fill blank: measured IC50 of the molecule Nc1ncc(C2CCN(C(=O)CCCc3nc4c(F)cccc4c(=O)[nH]3)CC2)cc1-c1ncccn1 is ____.
## Output 1400

## Input Query: IC50; subject: COc1ccc(C(=O)C2CCN(C(=O)CCCc3nc4ccccc4c(=O)[nH]3)CC2)cc1F
## Output 680

## Input Which IC50 value is on record for N#Cc1cc(C2CCN(C(=O)CCCc3nc4ccc(F)cc4c(=O)[nH]3)CC2)cnc1N ?
## Output 1400

## Input Dear colleague, I am looking for the recorded IC50 of the following molecule: COc1ccc(C(=O)C2CCN(C(=O)CCCc3nc4c(C)cc(F)cc4c(=O)[nH]3)CC2)cc1
## Output 170

## Input Give its IC50 value. Item: Cn1cc(C(=O)C2CCN(C(=O)CCCc3nc4ccccc4c(=O)[nH]3)CC2)cn1
## Output 2100

## Input Using the record for COc1ccc(C(=O)C2CCN(C(=O)CCCc3nc4c(F)cccc4c(=O)[nH]3)CC2)cn1 , report its IC50.
## Output 5000

## Input Param item = O=C(c1ccc(-c2cnn(CCN3CCCC3)c2)cc1)C1CCN(C(=O)CCCc2nc3ccccc3c(=O)[nH]2)CC1 ; retrieve measured IC50.
## Output 650

## Input For the molecule shown here, N#Cc1ccc(OC2CCN(C(=O)CCCc3nc4c(F)cccc4c(=O)[nH]3)CC2)cc1 , give the reported IC50.
## Output 1.3

## Input Data request, read-out IC50, for Cn1ccnc1C(=O)C1CCN(C(=O)CCCc2nc3ccccc3c(=O)[nH]2)CC1
## Output 3200

## Input # input molecule: Nc1ncc(C2CCN(C(=O)CCCc3nc4ccc(F)cc4c(=O)[nH]3)CC2)cc1-c1ncccn1 ; wanted: its IC50
## Output 600

## Input State the recorded IC50 for this entry: CCn1cc(-c2ccc(C(=O)C3CCN(C(=O)CCCc4nc5ccccc5c(=O)[nH]4)CC3)cc2)cn1
## Output 100

## Input Fill blank: measured IC50 of the molecule N#Cc1ccc(OC2CCN(C(=O)CCCc3nc4ccccc4c(=O)[nH]3)CC2)cc1 is ____.
## Output 680

## Input Returns the measured IC50 for the input molecule. Input: O=C(c1ccc(F)cc1)C1CCN(C(=O)CCCc2nc3ccccc3c(=O)[nH]2)CC1
## Output 2100

## Input Field request: IC50 | item: COc1ccc(C(=O)C2CCN(C(=O)CCCc3nc4ccc(F)cc4c(=O)[nH]3)CC2)cc1C
## Output 1000

## Input Reported IC50 for COc1ccc(C(=O)C2CCN(C(=O)CCCc3nc4c(F)cccc4c(=O)[nH]3)CC2)cc1C : what is it?
## Output 2600

## Input Would you mind telling me what IC50 value was observed for CC(C)(O)c1ccc(C(=O)C2CCN(C(=O)CCCc3nc4c(F)cccc4c(=O)[nH]3)CC2)cc1 ?
## Output 4300

## Input # input molecule: COc1ccc(C(=O)C2CCN(C(=O)CCCc3nc4c(C)cc(F)cc4c(=O)[nH]3)CC2)cc1C ; wanted: its IC50
## Output 64

## Input State the recorded IC50 for this entry: COc1ccc(C(=O)C2CCN(C(=O)CCCc3nc4ccc(F)cc4c(=O)[nH]3)CC2)cc1
## Output 710

## Input What does the record list as IC50 for COc1ccc(C(=O)C2CCN(C(=O)CCCc3nc4c(F)cccc4c(=O)[nH]3)CC2)cc1 ?
## Output 2100

## Input Item under review: COc1ccc(C(=O)C2CCN(C(=O)CCCc3nc4ccccc4c(=O)[nH]3)CC2)cn1 . Reported IC50?
## Output 2700

## Input IC50 for COc1ccc(C(=O)C2CCN(C(=O)CCCc3nc4c(F)cccc4c(=O)[nH]3)CC2)cc1F ?
## Output 1300

## Input Form field: reported IC50 of O=C(c1ccccc1)C1CCN(C(=O)CCCc2nc3c(F)cc(F)cc3c(=O)[nH]2)CC1
## Output 650

## Input Name the recorded IC50 for O=C(c1ccc(F)cc1)C1CCN(C(=O)CCCc2nc3ccc(F)cc3c(=O)[nH]2)CC1 .
## Output 650

## Input // returns reported IC50 for input COCCn1cc(-c2ccc(C(=O)C3CCN(C(=O)CCCc4nc5ccccc5c(=O)[nH]4)CC3)cc2)cn1
## Output 300

## Input So what does the record say about IC50 for COc1cccc(C(=O)C2CCN(C(=O)CCCc3nc4ccccc4c(=O)[nH]3)CC2)c1 ?
## Output 740

## Input Can you share its IC50? I mean this molecule: N#Cc1cc(C2CCN(C(=O)CCCc3nc4c(F)cccc4c(=O)[nH]3)CC2)cnc1N
## Output 2700

## Input I have this molecule here, Cc1cccc(C(=O)C2CCN(C(=O)CCCc3nc4ccccc4c(=O)[nH]3)CC2)c1 , and I need its recorded IC50.
## Output 810

## Input Given the entry N#Cc1cc(C2CCN(C(=O)CCCc3nc4ccccc4c(=O)[nH]3)CC2)cnc1N , report its measured IC50.
## Output 1100

## Input Would you kindly share the measured IC50 for COc1ccc(C(=O)C2CCN(C(=O)CCCc3nc4ccccc4c(=O)[nH]3)CC2)cc1C ?
## Output 990

---

- EXPERIMENTAL TARGET: TNKS1 (Homo sapiens)
- Construct: GST-tagged Tnks-1 (1023-1327 aa, prepared in-house); made in house
- Sequence (O95271 1023-1327): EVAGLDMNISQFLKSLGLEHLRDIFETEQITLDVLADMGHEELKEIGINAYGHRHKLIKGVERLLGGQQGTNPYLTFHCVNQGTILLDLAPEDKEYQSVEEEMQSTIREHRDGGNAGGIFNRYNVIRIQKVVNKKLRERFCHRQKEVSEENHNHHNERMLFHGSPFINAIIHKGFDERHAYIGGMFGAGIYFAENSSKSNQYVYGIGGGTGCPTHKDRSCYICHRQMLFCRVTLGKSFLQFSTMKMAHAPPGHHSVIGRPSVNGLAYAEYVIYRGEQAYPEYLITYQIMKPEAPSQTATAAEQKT
- EXPERIMENT NOTES: TNKS1 activity ELISA (autoparsylation assay)
- Format: biochemical
- DETAILS: GST-tagged Tnks-1; read-out: IC50 [M] TNKS1 ELISA
- Procedure: Description of the TNKS1 and TNKS2 ELISA Assay Biochemical Activity Testing of TNKS 1 and 2: Activity ELISA (Autoparsylation Assay) For analysis of autoparsylation activity of TNKS 1 and 2 an activity ELISA iss performed: In the first step GST tagged TNKS is captured on a Glutathione coated plate. Then the activity assay with biotinylated NAD is performed in the absence/presence of the compounds. […] The amount of biotinylated resp. autoparsylated TNKS is detected with a luminescence substrate for HRP. […]
QUANTITY MEASURED: IC50 (M)
The answer is to be given in M; state only the numeric part.

## Input Name the recorded IC50 for COc1ccc(C(=O)C2CCN(C(=O)CCCc3nc4c(F)cc(F)cc4c(=O)[nH]3)CC2)cc1C [Compound A14] .
## Output 8.6e-11

## Input Give the measured IC50 of Nc1ncc(C2CCN(C(=O)CCCc3nc4ccc(F)cc4c(=O)[nH]3)CC2)cc1-c1ncccn1 [Compound A32] .
## Output 3.2e-10

## Input Endpoint output: IC50 of N#Cc1ccc(OC2CCN(C(=O)CCCc3nc4ccc(F)cc4c(=O)[nH]3)CC2)cc1 [Compound A22] . Value?
## Output 1.3e-07

## Input Look up IC50 for this compound: N#Cc1cc(C2CCN(C(=O)CCCc3nc4ccc(F)cc4c(=O)[nH]3)CC2)cnc1N [Compound A31]
## Output 2.1e-09

## Input Fill in the blank: the reported IC50 of O=C(c1ccc(F)cc1)C1CCN(C(=O)CCCc2nc3ccc(F)cc3c(=O)[nH]2)CC1 [Compound A23] is ____.
## Output 8.4e-10

## Input Name the reported IC50 value associated with the compound COc1ccc(C(=O)C2CCN(C(=O)CCCc3nc4c(F)cccc4c(=O)[nH]3)CC2)cn1 [Compound A33]
## Output 1.3e-09

## Input What does the data say about its IC50? Entry: COc1ccc(C(=O)C2CCN(C(=O)CCCc3nc4ccc(F)cc4c(=O)[nH]3)CC2)cc1 [Compound A19]
## Output 3.1e-10

## Input For the compound shown here, COc1ccc(C(=O)C2CCN(C(=O)CCCc3nc4c(F)cc(F)cc4c(=O)[nH]3)CC2)cc1 [Compound A5] , give the reported IC50.
## Output 8.7e-11

## Input What value of IC50 has been reported for the following compound? Cn1cc(C(=O)C2CCN(C(=O)CCCc3nc4ccccc4c(=O)[nH]3)CC2)cn1 [Compound A41]
## Output 5.8e-10

## Input Reported IC50 for COc1ccc(C(=O)C2CCN(C(=O)CCCc3nc4c(F)cccc4c(=O)[nH]3)CC2)cc1F [Compound A26] : what is it?
## Output 3e-10

## Input Form field: reported IC50 of COCCn1cc(-c2ccc(C(=O)C3CCN(C(=O)CCCc4nc5ccccc5c(=O)[nH]4)CC3)cc2)cn1 [Compound A11]
## Output 5.8e-11

## Input Which IC50 reading was recorded for the compound COc1ccc(C(=O)C2CCN(C(=O)CCCc3nc4c(F)cccc4c(=O)[nH]3)CC2)cc1 [Compound A25] ?
## Output 2.8e-10

## Input // query IC50 value for entry Cc1cc(F)cc2c(=O)[nH]c(CCCC(=O)N3CCC(C(=O)c4ccccc4)CC3)nc12 [Compound A3]
## Output 2.2e-10

## Input What value of measured IC50 is listed for COc1ccc(C(=O)C2CCN(C(=O)CCCc3nc4ccccc4c(=O)[nH]3)CC2)cc1F [Compound A8] ?
## Output 8.5e-11

## Input Which IC50 value is on record for COc1ccc(C(=O)C2CCN(C(=O)CCCc3nc4ccc(F)cc4c(=O)[nH]3)CC2)cn1 [Compound A21] ?
## Output 7.5e-10

## Input What value of IC50 has been recorded for this entry: O=C(c1ccc(F)cc1)C1CCN(C(=O)CCCc2nc3c(F)cccc3c(=O)[nH]2)CC1 [Compound A28]
## Output 8.7e-10
